- Test system: CEM/C1
- EXPERIMENTAL_PROTOCOL: CellTiter-Glo cell viability assay
- Assay type: cell-based
- STUDY_CONDITIONS: CEM/C1, T-ALL; 72 hours
- Method: The EC50s were determined using CellTiter-Glo (Promega), a bioluminescent, cell viability assay measuring ATP levels in viable cells. Cells were plated in assay plates and incubated with a range of compound concentrations for 72 hours. Cells were lysed and ATP levels were determined using CellTiter-Glo reagent on a luminometer according to manufacturer's instructions. EC50 refers to the concentration of compound that inhibited 50% of cell growth.
REPORTED_METRIC: EC50

# compound CN[C@@H](C)C(=O)N[C@H](C(=O)N1CCC[C@H]1c1nc(C(=O)c2ccc(F)cc2)cs1)C1CCCCC1 ; its EC50 = 4.6 µM

----------
- System: HSB-2
- EXPERIMENTAL_PROTOCOL: CellTiter-Glo cell viability assay
- Format: cell-based
- STUDY_CONDITIONS: HSB2; HSB-2, T-ALL; 72 hours
REPORTED_METRIC: pEC50
Please keep in mind that pEC50 is minus log10 of the molar concentration; only the number is needed.

# molecule CN[C@@H](C)C(=O)N[C@H](C(=O)N1CCC[C@H]1c1nc(C(=O)c2ccc(F)cc2)cs1)C1CCCCC1 ; its pEC50 = 6.40

----------
- Tested on: SR
- EXPERIMENTAL_PROTOCOL: CellTiter-Glo cell viability assay
- Type: cell-based
- STUDY_CONDITIONS: Homo sapiens, LCIL, 72 hours
REPORTED_METRIC: pEC50
Please keep in mind that pEC50 is minus log10 of the molar concentration; only the number is needed.

Measured pEC50 (SR), entry CN[C@@H](C)C(=O)N[C@H](C(=O)N1CCC[C@H]1c1nc(C(=O)c2ccc(F)cc2)cs1)C1CCCCC1 : 4.93

----------
- Tested on: L-428
- EXPERIMENTAL_PROTOCOL: CellTiter-Glo cell viability assay
- Format: cell-based
- STUDY_CONDITIONS: Homo sapiens; L-428, HL; 72 hours
- Procedure: The EC50s were determined using CellTiter-Glo (Promega), a bioluminescent, cell viability assay measuring ATP levels in viable cells. Cells were plated in assay plates and incubated with a range of compound concentrations for 72 hours. Cells were lysed and ATP levels were determined using CellTiter-Glo reagent on a luminometer according to manufacturer's instructions. EC50 refers to the concentration of compound that inhibited 50% of cell growth.
REPORTED_METRIC: pEC50
Please keep in mind that pEC50 is minus log10 of the molar concentration; only the number is needed.

# compound CN[C@@H](C)C(=O)N[C@H](C(=O)N1CCC[C@H]1c1nc(C(=O)c2ccc(F)cc2)cs1)C1CCCCC1 ; its pEC50 = 5.14

----------
- Tested on: KE-37
- EXPERIMENTAL_PROTOCOL: CellTiter-Glo cell viability assay
- Assay type: cell-based
- STUDY_CONDITIONS: Homo sapiens; KE-37, T-ALL; 72 hours
REPORTED_METRIC: EC50 (µM)
Number only, in µM; omit the unit.

Measured EC50 (KE-37), entry CN[C@@H](C)C(=O)N[C@H](C(=O)N1CCC[C@H]1c1nc(C(=O)c2ccc(F)cc2)cs1)C1CCCCC1 : 5.1
